Would you mind telling me the reported yeast surface expression of each entry?
B1: scFv; the commonest letter at each place (parent)
chain 1: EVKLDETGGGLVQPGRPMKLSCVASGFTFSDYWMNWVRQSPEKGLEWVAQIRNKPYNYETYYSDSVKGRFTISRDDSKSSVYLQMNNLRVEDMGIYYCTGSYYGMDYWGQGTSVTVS
chain 2: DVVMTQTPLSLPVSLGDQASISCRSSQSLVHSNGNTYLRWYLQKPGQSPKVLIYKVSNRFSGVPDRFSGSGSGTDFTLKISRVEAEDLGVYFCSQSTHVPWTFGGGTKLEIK

variants of: B1; assay: yeast surface expression (ratio to wild type); higher = more expressed; details: format: scFv 4-4-20, heavy + light
One number for each entry.

Answered cases to consult:
chain 1 N35C V37K; 0.542
chain 1 S30R V37M; 1.02
chain 1 W108A G109H; 0.356

Each variant below has a reported value. Please supply its yeast surface expression.
1. chain 1 G100K G104C
2. chain 1 S101L Y103S M105A
3. chain 1 G100K Y107V
4. chain 1 F29T S30D M34V
5. chain 1 Y103T M105H
6. chain 1 G104R
7. chain 1 F29P V37K
8. chain 1 T28K W36R

Result:
0.182
0.713
0.3
0.837
0.849
0.626
0.288
0.393

Where these numbers come from: the FLAb antibody collection (doi:10.7554/elife.23156)
